Biological target: Circumsporozoite protein (CSP) (Plasmodium falciparum (isolate 3D7), UniProt Q7K740)
Sequence (Q7K740 19-374): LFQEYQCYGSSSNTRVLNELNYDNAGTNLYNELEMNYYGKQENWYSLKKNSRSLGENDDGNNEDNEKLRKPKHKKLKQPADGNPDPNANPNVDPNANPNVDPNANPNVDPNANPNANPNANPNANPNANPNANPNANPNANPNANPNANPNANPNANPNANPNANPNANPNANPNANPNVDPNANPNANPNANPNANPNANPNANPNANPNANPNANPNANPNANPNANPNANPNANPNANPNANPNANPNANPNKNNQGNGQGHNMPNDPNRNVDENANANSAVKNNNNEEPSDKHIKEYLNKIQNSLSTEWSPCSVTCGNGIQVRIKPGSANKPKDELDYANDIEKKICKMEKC
Assay: AVEXIS screen signal:noise (double-corrected)
Measured binding score, listed per entry.
// response body must contain only the number

binder: ADP262 (protein, bait human Fc-tagged dimer) QNSQLQEELRGLRETFSNFTASTEAQVKGLSTQGGNVGRKMKSLESQLEKQQKDLSEDHSSLLLHVKQFVSDLRSLSCQMAALQGNGSERTCCPVNWVEHERSCYWFSRSGKAWADADNYCRLEDAHLVVVTSWEEQKFVQHHIGPVNTWMGLHDQNGPWKWVDGTDYETGFKNWRPEQPDDWYGHGLGGGEDCAHFTDDGRWNDDVCQRPYRWVCETELDKASQEPPLL
valueObserved: 0.921

Q) So what's the measured binding score for this one? ADP345 (protein, bait human Fc-tagged dimer) MALLAGGLSRGLGSHPAAAGRDAVVFVWLLLSTWCTAPARAIQVTVSNPYHVVILFQPVTLPCTYQMTSTPTQPIVIWKYKSFCRDRIADAFSPASVDNQLNAQLAAGNPGYNPYVECQDSVRTVRVVATKQGNAVTLGDYYQGRRITITGNADLTFDQTAWGDSGVYYCSVVSAQDLQGNNEAYAELIVLGRTSGVAELLPGFQAGP
A) 0.842

Q) So what's the measured binding score for this one? ADP128 (protein, bait human Fc-tagged dimer) MAAEGWIWRWGWGRRCLGRPGLLGPGPGPTTPLFLLLLLGSVTADITDGNSEHLKREHSLIKPYQGVGSSSMPLWDFQGSTMLTSQYVRLTPDERSKEGSIWNHQPCFLKDWEMHVHFKVHGTGKKNLHGDGIALWYTRDRLVPGPVFGSKDNFHGLAIFLDTYPNDETTERVFPYISVMVNNGSLSYDHSKDGRWTELAGCTADFRNRDHDTFLAVRYSRGRLTVMTDLEDKNEWKNCIDITGVRLPTGYYFGASAGTGDLSDNHDIISMKLFQLMVEHTPDEESIDWTKIEPSVNFLKSPKDNVDDPTGNFRSGPLT
A) 1.03
